Biological target: KCNQ3*-R242A (Homo sapiens, UniProt O43525, A315T/R242A)
Experiment: TEVC of mutant KCNQ3*-R242A in oocytes
measure: pEC50
One number for each entry, as −log10 of the molar value.

Asked: I would be grateful if you could share the reported pEC50 for CC(C)c1cc2c(c(O)c1O)[C@@]1(C(=O)O)CCCC(C)(C)[C@@H]1CC2 [Carnosic acid, carnosic acid] .
Given back: 5.08

* * *

Molecular target: KCNQ2/3 (Homo sapiens, UniProt O43525+O43526)
Construct: expressed in transfected cells; host or cells: Xenopus laevis oocytes co-injected with cRNAs
Assay: TEVC of KCNQ2/3 heteromers expressed in Xenopus laevis oocytes
Type: cell-based
Conditions: 10 µM
measure: V0.5 Normalized tail current (mV)
Numbers only, in mV.

CC(C)c1cc2c3c(c1O)OC(=O)C31CCCC(C)(C)C1CC2 (stereo not shown) : -40.71
CC(C)c1cc2c(c(O)c1O)[C@@]1(C(=O)O)CCCC(C)(C)[C@@H]1CC2 : -47.94
CC(=O)Oc1c(C(C)C)cc2c(c1OC(C)=O)C1(C(=O)O)CCCC(C)(C)C1CC2 (stereo not shown) [Carnosic acid diacetate] : -38.43

Asked: I would be grateful if you could share the reported V0.5 Normalized tail current for COC(=O)[C@]12CCCC(C)(C)[C@@H]1CCc1cc(C(C)C)c(O)c(O)c12 [Methyl carnosate, methyl carnosate] .
Given back: -34.00

* * *

Field: V0.5 Normalized tail current. Provide a value for each of the molecules that follow.
Target: KCNQ3* (KCNQ3-A315T) (Homo sapiens, UniProt O43525, A315T)
Experiment: TEVC of KCNQ3* homomers expressed in Xenopus laevis oocytes
Assay type: cell-based
Conditions: 100 µM
Numbers only, in mV.

Consider the following illustrative entries.
COc1cc(C(=O)O)cc(OC)c1O [Syringic acid] : -49.16
O=C(O)[C@]1(O)C[C@@H](O)[C@@H](O)[C@H](O)C1 [Quinic acid, quinic acid] : -53.04
CC(C)c1cc2c(c(O)c1O)[C@@]13CCCC(C)(C)[C@@H]1C[C@@H]2OC3=O [Carnosol] : -61.13
O=C(/C=C/c1ccc(O)c(O)c1)O[C@H](Cc1ccc(O)c(O)c1)C(=O)O [Rosmarinic acid] : -49.64
COc1c(C(C)C)cc2c(c1OC)C13CCCC(C)(C)C1CC2OC3=O (stereo not drawn) [Dimethylcarnosol, dimethyl carnosol] : -49.25

Asked: Look up V0.5 Normalized tail current with KCNQ3* (KCNQ3-A315T) (Homo sapiens, UniProt O43525, A315T) for this molecule: CC(C)c1cc2c(cc1O)C1(C(=O)O)CCCC(C)(C)C1CC2 (stereo not drawn) [Pisiferic acid, pisiferic acid]
Given back: -51.70

* * *

Target: KCNQ3*-W265L (Homo sapiens, UniProt O43525, A315T/W265L)
Experiment: TEVC of mutant KCNQ3*-W265L in oocytes
Format: cell-based
Conditions: EC50 EM
measure: pEC50
Answers are plain numbers, as −log10 of the molar value.

Asked: I would be grateful if you could share the reported pEC50 for CC(C)c1cc2c(c(O)c1O)[C@@]1(C(=O)O)CCCC(C)(C)[C@@H]1CC2 [Carnosic acid, carnosic acid] .
Given back: 6.85

* * *

Target: KCNQ3* (KCNQ3-A315T) (Homo sapiens, UniProt O43525, A315T)
Assay: TEVC of KCNQ3* homomers expressed in Xenopus laevis oocytes
Assay type: cell-based
Details: EC50 V0.5 Activation, ΔV0.5act
measure: pEC50
Give bare numbers, as −log10 of the molar value.

Asked: I would be grateful if you could share the reported pEC50 for CC(C)c1cc2c(c(O)c1O)[C@@]1(C(=O)O)CCCC(C)(C)[C@@H]1CC2 [Carnosic acid, carnosic acid] .
Given back: 4.74

* * *

Biological target: KCNQ3*-P211A (Homo sapiens, UniProt O43525, A315T/P211A)
Test: TEVC of mutant KCNQ3*-P211A in oocytes
Format: cell-based
Details: EC50 EM
measure: EC50

Asked: I would be grateful if you could share the reported EC50 for CC(C)c1cc2c(c(O)c1O)[C@@]1(C(=O)O)CCCC(C)(C)[C@@H]1CC2 [Carnosic acid, carnosic acid] .
Given back: 3.21 µM

* * *

Target: KCNQ2/3 (Homo sapiens, UniProt O43525+O43526)
Construct: expressed in transfected cells; host or cells: Xenopus laevis oocytes co-injected with cRNAs
Assay: TEVC of KCNQ2/3 heteromers expressed in Xenopus laevis oocytes
Assay type: cell-based
Conditions: 100 µM
measure: V0.5 Normalized tail current (mV)
One number for each entry, in mV.

CC(C)c1cc2c(c(O)c1O)[C@@]13CCCC(C)(C)[C@@H]1C[C@@H]2OC3=O : -47.80

Respectfully, I request V0.5 Normalized tail current for each entry included below.
1. CC(C)c1cc2c(c(O)c1O)[C@@]1(C(=O)O)CCCC(C)(C)[C@@H]1CC2
2. CC(C)c1cc2c(cc1O)C1(C(=O)O)CCCC(C)(C)C1CC2 (stereo not drawn)
3. COc1cc(C(=O)O)cc(OC)c1O
4. O=C(O)[C@]1(O)C[C@@H](O)[C@@H](O)[C@H](O)C1
5. COc1c(C(C)C)cc2c(c1OC)C13CCCC(C)(C)C1CC2OC3=O (stereo not drawn)

Given back:
1. -49.95
2. -42.05
3. -47.76
4. -47.87
5. -37.81

* * *

Field: Slope. Provide a value for each of the compounds that follow.
Biological target: KCNQ2/3 (Homo sapiens, UniProt O43525+O43526)
Construct: expressed in transfected cells; host or cells: Xenopus laevis oocytes co-injected with cRNAs
Test: TEVC of KCNQ2/3 heteromers expressed in Xenopus laevis oocytes
Assay type: cell-based
Conditions: 100 µM
Give bare numbers, in mV.

COc1cc(C(=O)O)cc(OC)c1O [Syringic acid] : 5.13
CC(C)c1cc2c(c(O)c1O)[C@@]13CCCC(C)(C)[C@@H]1C[C@@H]2OC3=O [Carnosol] : 5.82
COc1c(C(C)C)cc2c(c1OC)C13CCCC(C)(C)C1CC2OC3=O (centres unmarked) [Dimethylcarnosol, dimethyl carnosol] : 6.71
CC(C)c1cc2c(cc1O)C1(C(=O)O)CCCC(C)(C)C1CC2 (centres unmarked) [Pisiferic acid, pisiferic acid] : 7.44

Shifting focus to the compound that follows.
Asked: I would be grateful if you could share the reported Slope for O=C(O)[C@]1(O)C[C@@H](O)[C@@H](O)[C@H](O)C1 [Quinic acid, quinic acid] .
Given back: 4.07

* * *

Molecular target: KCNQ3* (KCNQ3-A315T) (Homo sapiens, UniProt O43525, A315T)
Assay: TEVC of KCNQ3* homomers expressed in Xenopus laevis oocytes
Type: cell-based
Conditions: EC50 EM, EM of unclamped oocytes
measure: EC50 (nM)
Answers are plain numbers, in nM.

Asked: I would be grateful if you could share the reported EC50 for CC(C)c1cc2c(c(O)c1O)[C@@]1(C(=O)O)CCCC(C)(C)[C@@H]1CC2 [Carnosic acid, carnosic acid] .
Given back: 1190

* * *

Target: KCNQ3* (KCNQ3-A315T) (Homo sapiens, UniProt O43525, A315T)
Experiment: TEVC of KCNQ3* homomers expressed in Xenopus laevis oocytes
Type: cell-based
Details: 100 µM
I'd appreciate it if you marked entries condition met when Slope is lower than 5 mV and condition not met when it is not.

Completed entries (count: 3):
O=C(O)[C@]1(O)C[C@@H](O)[C@@H](O)[C@H](O)C1 : condition met
O=C(/C=C/c1ccc(O)c(O)c1)O[C@H](Cc1ccc(O)c(O)c1)C(=O)O : condition met
C[C@H]1[C@H](C)CC[C@]2(C(=O)O)CC[C@]3(C)C(=CC[C@@H]4[C@@]5(C)CC[C@H](O)C(C)(C)[C@@H]5CC[C@]43C)[C@H]12 : condition met

Let's switch to this compound now.
Asked: Please check: Slope for `CC(C)c1cc2c(c(O)c1O)[C@@]1(C(=O)O)CCCC(C)(C)[C@@H]1CC2` , strictly under 5 mV or not?
Given back: condition not met

* * *

Target: KCNQ3*-L198F (Homo sapiens, UniProt O43525, A315T/L198F)
Experiment: TEVC of mutant KCNQ3*-L198F in oocytes
Type: cell-based
Conditions: EC50 V0.5 Activation
measure: pEC50
Numbers only, as −log10 of the molar value.

Asked: I would be grateful if you could share the reported pEC50 for CC(C)c1cc2c(c(O)c1O)[C@@]1(C(=O)O)CCCC(C)(C)[C@@H]1CC2 [Carnosic acid, carnosic acid] .
Given back: 5.20

* * *

Target: KCNQ5 (Homo sapiens, UniProt Q9NR82)
Assay: TEVC of KCNQ5 homomers expressed in Xenopus laevis oocytes
Type: cell-based
Settings: EC50 V0.5 Activation
Source text: We generated cRNA transcripts encoding human KCNQ1, 2, 3, and 5 (wild-type and mutant) by in vitro transcription using the mMessage mMachine kit (Thermo Fisher Scientific, Waltham, MA, USA) according to manufacturer’s instructions, after vector linearization, from cDNA sub-cloned into expression vectors (pTLNx and pXOOM) incorporating Xenopus laevis β-globin 5’ and 3’ UTRs flanking the coding region to enhance translation and cRNA stability. […]
measure: pEC50
Give bare numbers, as −log10 of the molar value.

Asked: Look up pEC50 with KCNQ5 (Homo sapiens, UniProt Q9NR82) for this molecule: CC(C)c1cc2c(c(O)c1O)[C@@]1(C(=O)O)CCCC(C)(C)[C@@H]1CC2 [Carnosic acid, carnosic acid]
Given back: 3.64

Reference for the values: paper PMC10272180
